- target-system: myostatin (Homo sapiens, UniProt O14793)
- Construct: To produce mature myostatin, the pooled promyostatin was enzymatically cleaved between the propeptide and mature myostatin C terminal; made in house
- Sequence (O14793 267-375): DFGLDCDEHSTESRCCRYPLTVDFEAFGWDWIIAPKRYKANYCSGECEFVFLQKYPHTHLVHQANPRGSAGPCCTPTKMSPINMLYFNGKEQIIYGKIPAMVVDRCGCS
- protocol: C2C12 pMARE-luc cell based myostatin activity assay
- run-parameters: affinity matured peptibodies; a range of values is given
- Method: The antagonists including the binding agents described herein can be tested for their ability to bind myostatin and inhibit or block myostatin activity. […] The resulting luciferase activity is determined, and a titration curve is generated from the series of peptibody dilutions. […] Equal numbers of the reporter cells (C2C12/pMARE clone #44) were plated into 96 well cultures. […] Myostatin activity was measured by determining the luciferase activity in the treated cultures. […]
readout: IC50

Worked examples, 4 substances total:
- mTN8-19-5: affinity-matured peptibody; peptide AGAQEHCTRWPWMCAPNDWI: 3.5 to 7.74 nM
- mTN8-19-11: affinity-matured peptibody; peptide IYPHDQCTRWPWMCPPQPYP: 28.7 nM
- mTN8-19-2: affinity-matured peptibody; peptide YPEQGLCTRWPWMCPPQTLA: 7.51 to 34.4 nM
- mTN8-19-10: affinity-matured peptibody; peptide VVTQGHCTLWPWMCPPQRWR: 5.25 to 7.4 nM

**Query** Quick check: IC50 on myostatin (Homo sapiens, UniProt O14793), item 1× mTN8-19-21: 1× affinity-matured peptibody; peptide SEYQGLCTRWPWMCPPQGWK ?
**Result** 2.77 to 3.6 nM

**Query** Proceed to 1× mTN8-19-22: 1× affinity-matured peptibody; peptide TFSQGHCTRWPWMCPPQGWG
**Result** 1.93 to 3.26 nM

====

- target-system: myostatin (Homo sapiens)
- Construct: To produce mature myostatin, the pooled promyostatin was enzymatically cleaved between the propeptide and mature myostatin C terminal; made in house
- Sequence (O14793 267-375): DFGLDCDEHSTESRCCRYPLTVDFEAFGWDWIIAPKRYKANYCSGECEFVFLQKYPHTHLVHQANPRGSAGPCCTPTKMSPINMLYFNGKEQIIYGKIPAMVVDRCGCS
- protocol: C2C12 pMARE-luc cell based myostatin activity assay
- run-parameters: affinity matured peptibodies; a range of values is given
readout: IC50 (nM)
Give the value, in units of nM, as a plain number.

Worked examples, 3 substances total:
• mTN8-19-28: affinity-matured peptibody; peptide SGPQGHCTRWPWMCAPQGWF = 4.39
• mTN8-19-12: affinity-matured peptibody; peptide SYWQGQCTRWPWMCPPQWRG = 980
• mTN8-19-6: affinity-matured peptibody; peptide GVNQGQCTRWRWMCPPNGWE = 17.3

Now consider a different substance.
**Query** IC50 for mTN8-19-23: affinity-matured peptibody; peptide PGAHDHCTRWPWMCPPQSRY ?
**Result** 6.58

====

Each entry below carries its reported pIC50.
- target-system: myostatin (Homo sapiens, UniProt O14793)
- Construct: To produce mature myostatin, the pooled promyostatin was enzymatically cleaved between the propeptide and mature myostatin C terminal; made in house
- Sequence (O14793 267-375): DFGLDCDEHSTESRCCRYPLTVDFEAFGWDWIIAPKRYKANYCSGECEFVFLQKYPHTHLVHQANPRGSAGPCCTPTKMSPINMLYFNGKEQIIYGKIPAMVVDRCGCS
- protocol: C2C12 pMARE-luc cell based myostatin activity assay
- run-parameters: affinity matured peptibodies; a range of values is given
A value of pIC50 is the negative decimal logarithm of a concentration given in moles per litre.

Worked examples, 3 substances total:
- mTN8-19-13: affinity-matured peptibody; peptide MWQQGHCTRWPWMCPPQGWG: 7.70
- mTN8-19-4: affinity-matured peptibody; peptide MITQGQCTRWPWMCPPQPSG: 7.78
- mTN8-19-29: affinity-matured peptibody; peptide TLVQGHCTRWPWMCPPQRWV: 8.20

Now consider a different substance.
**Query** pIC50 for mTN8-19-16: affinity-matured peptibody; peptide YQTQGLCTRWPWMCPPQSQR ?
**Result** 8.33
